All values here come from PubChem BioAssay AID179.

Test system: CEM cells HIV-1 protection, formazan growth assay
Test: NCI AIDS Antiviral Assay
experimentalReadout: EC50

CN(C)c1ccc(/C=C(/C(=O)O)c2csc(-c3nc(/C(=C\c4ccc(N(C)C)cc4)C(=O)O)cs3)n2)cc1: > 34.7 µM

Summary: `Cc1ccc2c(c1)S(=O)(=O)N(C)C(c1ccccc1)=C2` , CEM cells HIV-1 protection, formazan growth assay, EC50 = > 18.2 µM

Summary: COC(=O)C12N=NN(c3ccccc3)C1(C(=O)OC)C1CCC2C1 (centres undefined) , CEM cells HIV-1 protection, formazan growth assay, EC50 = > 200 µM

Summary: `COC(C[C@H]1CCCC[C@]1(O)/C(=C\CO[Si](C(C)C)(C(C)C)C(C)C)Sc1ccccc1)OC` , CEM cells HIV-1 protection, formazan growth assay, EC50 = > 200 µM
